Assay: recombinant UMI read abundance after kanamycin selection (control-corrected) (log10(CPM+1)); higher = more efficient recombination; extreme values may be limits of the assay; sequences stand for … in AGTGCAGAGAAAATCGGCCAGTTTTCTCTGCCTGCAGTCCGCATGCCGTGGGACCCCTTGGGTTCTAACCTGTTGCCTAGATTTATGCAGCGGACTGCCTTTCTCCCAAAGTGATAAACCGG…AGGTTGGTTTCACT; site = the 11-nt donor;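 note: IS621 bridge recombinase in Escherichia coli cells against a fixed T5 target plasmid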
Threshold check on recombinant UMI read abundance (log10): at or above 0.05 gives Satisfied, strictly below gives Not satisfied.

Worked set:
# residues, answer_label
rows = [
    ("TGAGGTCCATGGACCGGTTTTCCCGGTAATCCGTATTTGGA (site TGAGGTCCTTC)", "Satisfied"),
    ("GGTCTTACATGGACCGGTTTTCCCGGTAATCCGTATTTGAG (site GGTCTTACTCT)", "Satisfied"),
    ("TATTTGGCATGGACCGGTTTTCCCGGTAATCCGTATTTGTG (site TATTTGGCTCA)", "Not satisfied"),
    ("GTAAACGCATGGACCGGTTTTCCCGGTAATCCGTATTTGTT (site GTAAACGCTAA)", "Satisfied"),
    ("ACTTGCCCATGGACCGGTTTTCCCGGTAATCCGTATTTGAT (site CCTTGCCCTAT)", "Satisfied"),
    ("CTATCGACATGGACCGGTTTTCCCGGTAATCCGTATTTGTT (site CGATCGACTAA)", "Not satisfied"),
    ("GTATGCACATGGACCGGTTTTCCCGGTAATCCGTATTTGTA (site GTATGCACTTT)", "Satisfied"),
    ("GGACTTCCATGGACCGGTTTTCCCGGTAATCCGTATTTGGT (site GGACTTCCTAC)", "Satisfied"),
    ("CTATGATCATGGACCGGTTTTCCCGGTAATCCGTATTTGAC (site CTAGTATCTGT)", "Not satisfied"),
    ("CTTCTATCATGGACCGGTTTTCCCGGTAATCCGTATTTGGT (site CTTCTATCTAC)", "Satisfied"),
]

Item CAAGTCTCATGGACCGGTTTTCCCGGTAATCCGTATTTGGG (site CAAGTCACTCC) with recombinant UMI read abundance (log10) of 0.05 or above?
Not satisfied

Item AGGACAACATGGACCGGTTTTCCCGGTAATCCGTATTTGAC (site AGGACCACTGT) with recombinant UMI read abundance (log10) of 0.05 or above?
Not satisfied

Item AACCGTTCATGGACCGGTTTTCCCGGTAATCCGTATTTGAT (site AACCGTTCTAT) with recombinant UMI read abundance (log10) of 0.05 or above?
Satisfied

Item GGACGTACATGGACCGGTTTTCCCGGTAATCCGTATTTGTG (site GGACGTACTCA) with recombinant UMI read abundance (log10) of 0.05 or above?
Satisfied
